Entries annotated with measured phenotypically active
System: WPMY1-ACTB-RAB5A
TEST METHOD NOTES: phenotypically active (imaging signature differs from DMSO and reproducible) at any of 0.3-9 uM (binary (1 = active, 0 = inactive)); higher = active
EXPERIMENTAL PARAMETERS: treatment time: 24 h
Where a name gives a salt, the structure may show the parent alone.

Some compounds with recorded phenotypically active:
[
  {
    "COMPOUND": "Cn1cc(CCn2cnc(-c3cnn(C)c3)c2-c2ccc(C#N)cc2)cn1",
    "phenotypically active": "0 (inactive)"
  },
  {
    "COMPOUND": "N#C/C(=C/c1ccc(-c2cc(Cl)ccc2Cl)o1)C(=O)Nc1cccc2ncccc12",
    "phenotypically active": "0 (inactive)"
  },
  {
    "COMPOUND": "C=CCc1ccc(O)c(-c2ccc(O)c(CC=C)c2)c1",
    "phenotypically active": "0 (inactive)"
  },
  {
    "COMPOUND": "O=C(O)c1cc(/N=N/c2ccc(S(=O)(=O)Nc3ccccn3)cc2)ccc1O",
    "phenotypically active": "0 (inactive)"
  },
  {
    "COMPOUND": "OC[C@H]1NC[C@H](O)[C@@H](O)[C@@H]1O",
    "phenotypically active": "0 (inactive)"
  },
  {
    "COMPOUND": "O=C(O)CCc1ccccc1 [Hydrocinnamic acid]",
    "phenotypically active": "0 (inactive)"
  },
  {
    "COMPOUND": "C[C@@H]1CN(CC(=O)Nc2ccc3c(c2)Cc2cccc(-c4cc(=O)cc(N5CCOCC5)o4)c2S3)C[C@H](C)O1",
    "phenotypically active": "1 (active)"
  },
  {
    "COMPOUND": "C=CCc1ccccc1OC[C@@H](O)CNC(C)C [Alprenolol hydrochloride]",
    "phenotypically active": "0 (inactive)"
  }
]

Req: Can you share its phenotypically active? I mean this compound: `Cc1nc(NC(=O)N2CCC[C@H]2C(N)=O)sc1-c1ccnc(C(C)(C)C(F)(F)F)c1`
Resp: 0 (inactive)

Req: If you can, please state the reported phenotypically active value of COc1ccc(C[C@@H]2c3cc(OC)c(OC)cc3CC[N@+]2(C)CCC(=O)OCCCCCOC(=O)CC[N@@+]2(C)CCc3cc(OC)c(OC)cc3[C@H]2Cc2ccc(OC)c(OC)c2)cc1OC [Cisatracurium besylate] .
Resp: 0 (inactive)

Req: Consider the compound `CNCC[C@@H](Oc1ccccc1C)c1ccccc1` and give its measured phenotypically active.
Resp: 0 (inactive)

Req: Requested read-out: phenotypically active. Entry: CC[N+](CC)(CC)CCOc1cccc(OCC[N+](CC)(CC)CC)c1OCC[N+](CC)(CC)CC [gallamine-triethiodide]
Resp: 0 (inactive)

Req: GET /values?readout=phenotypically active&item= `Nc1nc(Cl)nc2c1ncn2[C@@H]1O[C@H](CO)[C@@H](O)[C@@H]1F`
Resp: 1 (active)

Req: Which phenotypically active reading was recorded for the compound NS(=O)(=O)c1cc(Cl)c(Cl)c(S(N)(=O)=O)c1 [diclofenamide] ?
Resp: 0 (inactive)

====

Tested on: A549-TP53BP1-CLTA
TEST METHOD NOTES: phenotypically active (imaging signature differs from DMSO and reproducible) at any of 0.3-9 uM (binary (1 = active, 0 = inactive)); higher = active
EXPERIMENTAL PARAMETERS: treatment time: 24 h
Counter-ions that a name gives are not always drawn.
Could you please pick one outcome from this set? yes for active, no for inactive

Check out these entries, answers already filled in.
[
  {
    "COMPOUND": "CC1=C(/C=C/C(C)=C/C=C/C(C)=C/C(=O)O)C(C)(C)CCC1",
    "LABEL VALUE": "no"
  },
  {
    "COMPOUND": "Cc1cc(CS(=O)(=O)c2ccccc2)cc(OCc2ccc(CN3CCC[C@@H]3CO)cc2)c1 [PF 543 hydrochloride]",
    "LABEL VALUE": "no"
  },
  {
    "COMPOUND": "CCCC(=O)O[C@]1(C(=O)COC(C)=O)CC[C@H]2[C@@H]3C[C@H](F)C4=CC(=O)C=C[C@]4(C)[C@@]3(F)[C@@H](O)C[C@@]21C [difluprednate]",
    "LABEL VALUE": "yes"
  },
  {
    "COMPOUND": "Cc1cc(Nc2ccc(NC(=O)c3ccc(Nc4ccnc5ccccc45)cc3)cc2)nc(N)n1",
    "LABEL VALUE": "yes"
  },
  {
    "COMPOUND": "O=C(Nc1cccc(Br)c1)c1cccc(S(=O)(=O)N2CCCCCC2)c1",
    "LABEL VALUE": "no"
  },
  {
    "COMPOUND": "O=C1c2ccccc2C(Cc2ccncc2)(Cc2ccncc2)c2ccccc21",
    "LABEL VALUE": "no"
  },
  {
    "COMPOUND": "C[C@@H](CN1CCC(n2c(=O)[nH]c3cc(Cl)ccc32)CC1)NC(=O)c1ccc2ccccc2c1",
    "LABEL VALUE": "yes"
  },
  {
    "COMPOUND": "OCCOCCN1CCN(C2=Nc3ccccc3Sc3ccccc32)CC1 [Quetiapine hemifumarate]",
    "LABEL VALUE": "no"
  },
  {
    "COMPOUND": "CC(=O)Oc1ccccc1C(=O)O",
    "LABEL VALUE": "no"
  },
  {
    "COMPOUND": "Nc1ncnc2c1nc(Br)n2[C@@H]1O[C@@H]2COP(=O)(O)O[C@H]2[C@H]1O [8-Bromo-cAMP, sodium salt]",
    "LABEL VALUE": "no"
  }
]

Req: What call does the record list for `CC(=O)O[C@@H]1C[C@H]2C(C)(C)C(=O)C=C[C@]2(C)[C@H]2CC[C@@]3(C)[C@H](c4ccoc4)OC(=O)[C@H]4O[C@]43[C@@]21C` ?
Resp: no

Req: Query: recorded result category for `O=C(CCCCCN1C(=O)c2cccc3cccc(c23)C1=O)NO` in this test
Resp: yes

Req: What classification did `FC(F)(F)c1ccc(/C=C/c2nc(COc3ccc(CCCCn4ccnn4)cc3)co2)cc1` end up with in this test?
Resp: yes

Req: Look up the recorded call for `COCc1c(C(C)C)nc(C(C)C)c(/C=C/[C@@H](O)C[C@@H](O)CC(=O)O)c1-c1ccc(F)cc1` in this test.
Resp: yes

Req: Recorded test call requested for `CC1=NN(c2ccc(C(=O)O)cc2)C(=O)/C1=C\c1ccc(-c2cc(C)c(C)cc2[N+](=O)[O-])o1`
Resp: no

Req: Tell me the recorded outcome of this test for `CC(=C/[C@@H](C)C(=O)c1ccc(N(C)C)cc1)/C=C/C(=O)NO` .
Resp: yes

Req: # outcome recorded in this test, key = `Nc1cc(-c2ccncc2)c[nH]c1=O`
Resp: no

====

Tested on: HepG2-ACTB-RAB5A
TEST METHOD NOTES: phenotypically active (imaging signature differs from DMSO and reproducible) at any of 0.3-9 uM (binary (1 = active, 0 = inactive)); higher = active
EXPERIMENTAL PARAMETERS: treatment time: 24 h
Counter-ions that a name gives are not always drawn.
// reported phenotypically active for each item listed

Req: Request the reported phenotypically active associated with COc1c(Cl)cc2c([nH]c3cnccc32)c1NC(=O)c1cccnc1C [ML 120B dihydrochloride]
Resp: 1 (active)

Req: Could you share which phenotypically active value was measured for `Nc1cc(C(F)(F)F)c(-c2cc(N3CCOCC3)nc(N3CCOCC3)n2)cn1` ?
Resp: 1 (active)

Req: Tell me the measured phenotypically active of `COc1cc(C=O)c([N+](=O)[O-])cc1OC` , please.
Resp: 0 (inactive)

====

Test system: A549-TUBA1B-RELA
TEST METHOD NOTES: phenotypically active (imaging signature differs from DMSO and reproducible) at any of 0.3-9 uM (binary (1 = active, 0 = inactive)); higher = active
EXPERIMENTAL PARAMETERS: treatment time: 24 h
Structures can show the parent of a compound that is named as a salt.
phenotypically active: recorded values

Examples from the recorded data:
[
  {
    "MOLECULE": "C[C@H]1COCCN1c1cc(C2(S(=O)(=O)C3CC3)CC2)nc(-c2ccc(NC(=S)NCCO)cc2)n1",
    "TESTED TARGET": "A549-TUBA1B-RELA",
    "phenotypically active": "1 (active)"
  },
  {
    "MOLECULE": "COc1ccc(CCNCc2ccc(OCc3ccc(Cl)nc3)c(OC)c2)cc1OC [SBE 13 hydrochloride]",
    "TESTED TARGET": "A549-TUBA1B-RELA",
    "phenotypically active": "1 (active)"
  },
  {
    "MOLECULE": "NS(=O)(=O)c1cc2c(cc1Cl)NC(C(Cl)Cl)NS2(=O)=O (centres undefined) [trichlormethiazide]",
    "TESTED TARGET": "A549-TUBA1B-RELA",
    "phenotypically active": "0 (inactive)"
  },
  {
    "MOLECULE": "Cc1ccc(-c2cc(C(F)(F)F)nn2-c2ccc(S(N)(=O)=O)cc2)cc1",
    "TESTED TARGET": "A549-TUBA1B-RELA",
    "phenotypically active": "0 (inactive)"
  },
  {
    "MOLECULE": "COc1cc(/C=C/C(=O)N2CCC=CC2=O)cc(OC)c1OC",
    "TESTED TARGET": "A549-TUBA1B-RELA",
    "phenotypically active": "1 (active)"
  },
  {
    "MOLECULE": "CC(=O)[C@H]1CC[C@H]2[C@@H]3C=CC4=CC(=O)CC[C@@]4(C)[C@@H]3CC[C@]12C",
    "TESTED TARGET": "A549-TUBA1B-RELA",
    "phenotypically active": "0 (inactive)"
  },
  {
    "MOLECULE": "OCc1cc(C(O)CNCCCCCCOCCCCc2ccccc2)ccc1O (centres undefined)",
    "TESTED TARGET": "A549-TUBA1B-RELA",
    "phenotypically active": "1 (active)"
  },
  {
    "MOLECULE": "COc1cc2nc3occc3c(OC)c2cc1OC",
    "TESTED TARGET": "A549-TUBA1B-RELA",
    "phenotypically active": "0 (inactive)"
  }
]

Kindly consider the entry below.
Req: Could you share which phenotypically active value was measured for `Nc1ncnc2c1cnn2-c1ccccc1` ?
Resp: 0 (inactive)
